What fraction ligated was measured for each of the following?
test system: F1*sub RNA substrate (template-directed ligation); test: fraction ligated after 30 min (ligated reads / total reads); higher = more ligase activity; sequences stand for … in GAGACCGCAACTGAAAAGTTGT…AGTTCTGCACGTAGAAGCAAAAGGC; settings: 42 °C
Respond using a number only.

Inquiry: # query: fraction ligated of entry TATCACTTGTGTAACACTTTGGATGGGTTGA [3d1732]
Reply text: 0.841

Inquiry: # query: fraction ligated of entry TATCACTTGTGTAAGAACTTTGGATGGGTTG [3d1771]
Reply text: 0.85

Inquiry: # query: fraction ligated of entry TATCACTTGTCGAAACACTTTGGATGGGTTA [3d1923]
Reply text: 0.756

Inquiry: # query: fraction ligated of entry TACACTTGTCTAAGACACTTTGGAGGGTTGA [3d642]
Reply text: 0.115

Inquiry: # query: fraction ligated of entry TAACTTGTCGTAAGACACTTGGATGGGTTGA [3d521]
Reply text: 0.266

Inquiry: # query: fraction ligated of entry TATCACTTGTCGAAGACTTTGGATGGGTTGA [3d1925]
Reply text: 0.784

Inquiry: # query: fraction ligated of entry TATCACTTGTCTAGACACTTTGATGGGTTGA [3d1830]
Reply text: 0.739

Inquiry: # query: fraction ligated of entry TATCACTTGTCTAAGACACTTGGATGGTTGA [3d1882]
Reply text: 0.12

Inquiry: # query: fraction ligated of entry TAATTGTCGTAAGACACTTTGGATGGGTTGA [3d508]
Reply text: 0.0528

Inquiry: # query: fraction ligated of entry TTCACTTGCGTAAGACACTTTGGAGGGTTGA [3d383]
Reply text: 0.0421

Inquiry: # query: fraction ligated of entry TATCATTTGTAAGACACTTTGGATGGGTTGA [3d1140]
Reply text: 0.803

Inquiry: # query: fraction ligated of entry TTCACTTGTCGTAAGACATTTGGATGGGTTA [3d482]
Reply text: 0.167

Inquiry: # query: fraction ligated of entry TATCACTTGTCGTAAGACCTTTGGTGGGTTGA [2d264]
Reply text: 0.114

Inquiry: # query: fraction ligated of entry TATCACTTGTCTAAACACTTTGGATGGGTTG [3d1845]
Reply text: 0.792

Inquiry: # query: fraction ligated of entry TATCACTTGCGTAAGCATTTGGATGGGTTGA [3d1651]
Reply text: 0.83

Inquiry: # query: fraction ligated of entry TACACTTGTCGTAAACACTTGGATGGGTTGA [3d675]
Reply text: 0.0236

Data origin, for the record: the supplement of paper PMC6755084
